Data provenance: the supplement of paper PMC9265050

tested on: SW480; assay: drug sensitivity score (DSS, integrated dose-response area); higher = more sensitive (stronger viability reduction); extreme values may be limits of the assay; conditions: shRNA: SND1 shRNA1 (SND1 silenced)
Below, each entry is listed alongside its reported drug sensitivity score.
Form entry: value (DSS) — number only.

compound: CN(C)Cc1ccc(S(=O)(=O)n2ccc(/C=C/C(=O)NO)c2)cc1
unit_abbreviation: DSS
reading: 8
//
compound: CC1(C)NC(=O)N(c2ccc([N+](=O)[O-])c(C(F)(F)F)c2)C1=O [Nilutamide]
unit_abbreviation: DSS
reading: 0
//
compound: C=CCNC1=C2C[C@@H](C)C[C@H](OC)[C@H](O)[C@@H](C)/C=C(\C)[C@H](OC(N)=O)[C@@H](OC)/C=C\C=C(/C)C(=O)NC(=CC1=O)C2=O
unit_abbreviation: DSS
reading: 10.5
//
compound: CCc1cc(Nc2nccc(-c3c(-c4ccc(OC)c(C(=O)Nc5c(F)cccc5F)c4)nc4ccccn34)n2)c(OC)cc1N1CCC(N2CCN(S(C)(=O)=O)CC2)CC1
unit_abbreviation: DSS
reading: 0.2

Ask: Would you mind telling me what drug sensitivity score value was observed for CC1(C)CNc2cc(NC(=O)c3cccnc3NCc3ccncc3)ccc21 ?
Result: 0

Ask: Subsequent entry: Cc1ncc(Cl)cc1NCc1ccc(C(=O)N[C@@H](CC2CCCC2)C(=O)NC2CC2)s1
Result: 0

Ask: Subsequent entry: Nc1nc(OCc2cc(Br)cs2)c2[nH]cnc2n1
Result: 0

Ask: Subsequent entry: Nc1nc(N)c2nc(-c3cccc(O)c3)c(-c3cccc(O)c3)nc2n1
Result: 0

Ask: Subsequent entry: COc1cc(OC)c(/C=C/S(=O)(=O)Cc2ccc(OC)c(NCC(=O)O)c2)c(OC)c1
Result: 15.1

Ask: Subsequent entry: CC(=O)NCC(=O)N1[C@@H]2CC[C@H]1c1ccc(Nc3ncc(C(F)(F)F)c(NC4CCC4)n3)cc12
Result: 17.4

Ask: Subsequent entry: CNC(=O)c1ccc(N2C(=S)N(c3ccc(C#N)c(C(F)(F)F)c3)C(=O)C23CCC3)cc1F
Result: 0.3

Ask: Subsequent entry: Clc1ccc(Nc2nnc(Cc3ccncc3)c3ccccc23)cc1
Result: 1.8

Ask: Subsequent entry: CN1CCC(COc2cnc(-c3cccc(Cn4nc(-c5cccc(C#N)c5)ccc4=O)c3)nc2)CC1
Result: 0

Ask: Subsequent entry: Cn1nccc1Nc1nccc(-c2ccn([C@H](CO)c3ccc(Cl)c(F)c3)c(=O)c2)n1
Result: 5.9

Ask: Subsequent entry: CCc1cncnc1N1CCN(Cc2nc3ccc(C(F)(F)F)cc3[nH]2)CC1
Result: 0.3

Ask: Subsequent entry: NC[C@@](O)(c1ccc(Cl)cc1)c1ccc(-c2cn[nH]c2)cc1
Result: 8

Ask: Subsequent entry: CS(=O)(=O)c1ccc(C2=C(c3ccccc3)C(=O)OC2)cc1
Result: 0
